measured-on: Norway rat Vesicular Monoamine Transporter (VMAT2), neurotransmitter transporter, Slc18a2 (gene 25549)
experiment: NVS_TR_rVMAT2: NovaScreen (NVS) Transporter Assay for Norway rat Vesicular Monoamine Transporter (VMAT2), neurotransmitter transporter (AID 2283376);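 note: actives lower the bound radioligand signal below the DMSO level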
Experimental: NVS_TR_rVMAT2 is a biochemical, single-readout assay that uses extracted gene-proteins from Rat forebrain in a tissue-based cell-free assay. Measurements were taken 1 hour after chemical dosing in a 96-well plate.NVS_TR_rVMAT2 is one of one assay component(s) measured or calculated from the NVS_TR_rVMAT2 assay. […] This assay endpoint, NVS_TR_rVMAT2, was analyzed in the positive analysis fitting direction relative to DMSO as the negative control and baseline of activity. […]
Records with an inconclusive call do not appear. Calls of active or inactive are those of the source. Rule for the calls: active = hit-call score of the fitted dose curve at least 0.9, where 1 is the maximum; inconclusive = response in the unintended direction; inactive = score below 0.9.
Outcome codes: active, inactive

structure-as-smiles	assigned-class
COC(=O)OC	inactive
c1ccc2c(c1)ccc1ccccc12	inactive
CCC(=C(c1ccc(O)cc1)c1ccc(OCCN(C)C)cc1)c1ccccc1	active
CCCCCCCCCCCCCCCC[N+](C)(C)CC	inactive
COC(=O)c1ccc(C(=O)OC)cc1	inactive
CCOCN(C(=O)CS(=O)(=O)O)c1c(C)cccc1CC	inactive
[Cl][Dy]([Cl])[Cl]	inactive

Data origin, for the record: PubChem BioAssay (EPA / NIEHS)
